# test-target: Stromelysin-1 (Homo sapiens, UniProt P08254)
# Sequence (P08254 whole entry): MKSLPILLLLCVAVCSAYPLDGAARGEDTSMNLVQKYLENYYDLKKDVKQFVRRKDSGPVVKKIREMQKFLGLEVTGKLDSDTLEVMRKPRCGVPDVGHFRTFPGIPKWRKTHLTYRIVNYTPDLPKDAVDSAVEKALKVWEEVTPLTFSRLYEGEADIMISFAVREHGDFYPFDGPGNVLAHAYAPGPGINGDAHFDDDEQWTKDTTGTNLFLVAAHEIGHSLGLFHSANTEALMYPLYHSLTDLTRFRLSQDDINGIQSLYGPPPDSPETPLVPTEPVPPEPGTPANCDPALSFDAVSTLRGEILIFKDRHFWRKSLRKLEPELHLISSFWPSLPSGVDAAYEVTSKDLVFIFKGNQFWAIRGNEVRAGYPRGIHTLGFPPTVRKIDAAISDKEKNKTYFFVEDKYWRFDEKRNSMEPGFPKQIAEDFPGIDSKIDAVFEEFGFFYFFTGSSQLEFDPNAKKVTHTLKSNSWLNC
# test-summary: Inhibition of matrix metalloprotease-3 (MMP-3), stromelysin-1
endpoint: pKi
pKi is a log-scale quantity: -log10 of the concentration expressed in molar.

For orientation, consider the following solved cases.
{"compound": "COc1ccc(S(=O)(=O)[C@H](CCCCc2ccccc2)[C@@H](C)C(=O)NO)cc1", "test-target": "Stromelysin-1 (Homo sapiens, UniProt P08254)", "test-value": 6.30}
{"compound": "COc1ccc(S(=O)(=O)C(C)(CCCCc2ccccc2)CC(=O)NO)cc1 (centres undefined)", "test-target": "Stromelysin-1 (Homo sapiens, UniProt P08254)", "test-value": 6.00}

Consider now this further compound.
Qu. Consider the compound shown here: COc1ccc(S(=O)(=O)C(CCCCc2ccccc2)CC(=O)NO)cc1 (centres undefined) What is its recorded pKi?
Ans. 6.15
